Values compiled from ChEMBL document CHEMBL1268899.

Molecular target: Polyunsaturated fatty acid lipoxygenase ALOX15 (Homo sapiens)
Sequence (P16050 whole entry): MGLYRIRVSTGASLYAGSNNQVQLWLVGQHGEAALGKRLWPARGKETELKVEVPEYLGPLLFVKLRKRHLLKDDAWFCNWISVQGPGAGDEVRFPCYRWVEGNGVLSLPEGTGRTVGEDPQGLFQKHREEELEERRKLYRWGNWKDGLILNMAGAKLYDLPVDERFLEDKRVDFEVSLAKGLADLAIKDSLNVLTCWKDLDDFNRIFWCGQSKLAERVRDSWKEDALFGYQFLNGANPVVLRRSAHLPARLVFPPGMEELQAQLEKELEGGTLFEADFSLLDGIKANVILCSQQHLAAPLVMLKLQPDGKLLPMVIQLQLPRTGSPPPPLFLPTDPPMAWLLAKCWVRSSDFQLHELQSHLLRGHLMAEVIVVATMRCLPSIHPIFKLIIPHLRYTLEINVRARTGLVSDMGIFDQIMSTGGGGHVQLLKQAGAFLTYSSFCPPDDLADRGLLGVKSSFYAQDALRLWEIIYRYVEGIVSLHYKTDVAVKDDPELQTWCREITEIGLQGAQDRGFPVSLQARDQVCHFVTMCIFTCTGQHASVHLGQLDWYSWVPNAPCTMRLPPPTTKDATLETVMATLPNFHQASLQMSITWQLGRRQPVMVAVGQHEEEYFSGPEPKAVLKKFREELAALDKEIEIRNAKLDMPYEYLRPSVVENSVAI
Assay: Inhibition of human N-terminal His6-tagged reticulocyte 15-lipoxygenase-1 allosteric site assessed as 15-HPETE formation by Michaelis-Menten equation analysis
Reported Endpoint: Ki (µM)
Numbers only, in µM.

query: Give its Ki value. Item: O=C(OCC#CCSc1nnc(-c2cccc3ccccc23)o1)c1cnc[nH]1
result: 8.1
